System: HEK-293T
assay_text: Multiplex assay against HEK293T
Type: toxicity, cell-based
experimental_setup: human, 12 h, 10 µM, compound concentration 10 uM, replicate 2
Bucketed by reported Population Pyknosed Nuclei (%), buckets being band A (below 10%), band B (10% to below 70%), band C (70% or more)

>  <molecule>
CCOc1cc2ncc(C#N)c(Nc3ccc(OCc4cccc(F)c4)c(Cl)c3)c2cc1NC(=O)/C=C/CN(C)C

>  <target_system>
HEK-293T

>  <category_label>
band B

$$$$
>  <molecule>
O=C(O)c1ccc2cc(-c3ccc(O)c(C45CC6CC(CC(C6)C4)C5)c3)ccc2c1

>  <target_system>
HEK-293T

>  <category_label>
band B

$$$$
>  <molecule>
Nc1nc2c(c(N3CCNCC3)n1)CCC1=C2[C@@H]2CCCC[C@@H]2O1

>  <target_system>
HEK-293T

>  <category_label>
band B

$$$$
>  <molecule>
N#Cc1cnc(Nc2cc(NC[C@H]3CNCCO3)c(C(F)(F)F)cn2)cn1

>  <target_system>
HEK-293T

>  <category_label>
band A

$$$$
>  <molecule>
CCn1c(-c2nonc2N)nc2cnc(Oc3cccc(NC(=O)c4ccc(OCCN5CCOCC5)cc4)c3)cc21 [GSK-269962A]

>  <target_system>
HEK-293T

>  <category_label>
band C

$$$$
>  <molecule>
CN(C)C/C=C/C(=O)Nc1cc2c(Nc3ccc(F)c(Cl)c3)ncnc2cc1O[C@H]1CCOC1.O=C(O)/C=C\C(=O)O.O=C(O)/C=C\C(=O)O [AFATINIB DIMALEATE]

>  <target_system>
HEK-293T

>  <category_label>
band B

$$$$
>  <molecule>
COc1ccc(NS(=O)(=O)c2sc3ccc(Cl)cc3c2C)cc1N1CCNCC1.Cl

>  <target_system>
HEK-293T

>  <category_label>
band C

$$$$
>  <molecule>
CCOc1cc(N2CCC(O)CC2)ccc1Nc1ncc2c(n1)N(C1CCCC1)CCC(=O)N2C

>  <target_system>
HEK-293T

>  <category_label>
band A

$$$$
>  <molecule>
CC(C)N1CCC(C)(C)c2cc(C#Cc3ccc(C(=O)O)cc3)ccc21

>  <target_system>
HEK-293T

>  <category_label>
band A

$$$$
>  <molecule>
Cl.Cl.NC1(c2ccc(-c3nc4ccn5c(=O)[nH]nc5c4cc3-c3ccccc3)cc2)CCC1

>  <target_system>
HEK-293T

>  <category_label>
band B

$$$$
>  <molecule>
Cc1cc2c(cc1N1C(=O)c3cccc4c(CCCO)ccc(c34)C1=O)n(C)c(=O)n2C

>  <target_system>
HEK-293T

>  <category_label>
band B

$$$$
>  <molecule>
CCc1cc2c(cc1CC)CC(NC[C@H](O)c1ccc(O)c3[nH]c(=O)ccc13)C2

>  <target_system>
HEK-293T

>  <category_label>
band C

$$$$
>  <molecule>
CN(C)CCOc1ccc(-c2nc(-c3ccncc3)c(-c3ccc4c(c3)CC/C4=N\O)[nH]2)cc1

>  <target_system>
HEK-293T

>  <category_label>
band A

$$$$
>  <molecule>
c1ccc2oc(-c3csc(C4CCN(Cc5nc6ncccc6[nH]5)CC4)n3)cc2c1

>  <target_system>
HEK-293T

>  <category_label>
band A

$$$$
